- system under test: T1, mouse IL-2 receptor β subunit (mIL-2Rβ) (mouse, UniProt P16297 27-240, biotin on the C-terminal biotin acceptor peptide)
- T1 construct: extracellular domain; Biotinylated form for SPR; also called MmIL-2Rβ; murine IL-2Rβ
- T1 sequence: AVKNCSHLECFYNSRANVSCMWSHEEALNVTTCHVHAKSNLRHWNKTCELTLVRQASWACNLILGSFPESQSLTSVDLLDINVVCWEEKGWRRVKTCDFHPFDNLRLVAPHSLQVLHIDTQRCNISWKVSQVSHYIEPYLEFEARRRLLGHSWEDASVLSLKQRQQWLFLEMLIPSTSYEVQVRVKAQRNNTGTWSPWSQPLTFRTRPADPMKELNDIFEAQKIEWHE
- experiment notes: SPR, equilibrium titration; biotinylated IL-2Rβ on streptavidin chip
Listed binders paired with reported Kd
observation type: Kd (nM)

binder="G1_neo2_40_1F_M3 (designed binder) STEKTQHAAEDALRDALMLRNLLNEPNEKLARIITTMQSWQFTEKIDGDGAQELAKEVEELQQEHEVRGIDVEDYASNLKVILLQLA" result_value=402
binder="mouse interleukin-2 (mIL-2) (ligand, UniProt P04351 21-169, looked up, range 1-149; Baculovirus expression for SPR; also called MmIL-2; mouse IL-2) APTSSSTSSSTAEAQQQQQQQQQQQQHLEQLLMDLQELLSRMENYRNLKLPRMLTFKFYLPKQATELKDLQCLEDELGPLRHVLDLTQSKSFQLEDAENFISNIRVTVVKLKGSDNTFECQFDDESATVVDFLRRWIAFCQSIISTSPQ" result_value=1500
